# MEASURED_ON: Gag-Pol polyprotein (Human immunodeficiency virus type 1 group M subtype B (isolate HXB2))
# PROTOCOL: HIV-1 RT RNase H inhibitor potency, dose response, biochemical, probe assessment (AID 652)
# RECORDED_CONDITIONS: pH 8; 23 °C
pIC50: −log10 of the molar value.

- MOLECULE: "COc1ccc(N2CSC3=C(C#N)C(c4cc(OC)ccc4OC)CC(=O)N3C2)c(OC)c1 (stereo unspecified)"
  pIC50: 5.54
- MOLECULE: "COc1ccc(N2CSC3=C(C#N)C(c4ccc(OC)c(OC)c4)CC(=O)N3C2)c(OC)c1 (stereo unspecified)"
  pIC50: 4.75
- MOLECULE: "Cc1ccc(NC(=O)Cn2nnc(C(=O)Nc3ccc(C)c(C)c3)c2N)cc1"
  pIC50: 4.78
- MOLECULE: "CC(Cc1ccc(O)c(O)c1)C(C)Cc1ccc(O)c(O)c1 (stereo unspecified)"
  pIC50: 6.18
- MOLECULE: "C=CCNC(=O)c1c(N)n(-c2ccc3c(c2)OCO3)c2nc3ccccc3nc12"
  pIC50: 4.49
- MOLECULE: "O=c1c2ccccc2sn1-c1cc(S(=O)(=O)N2CCOCC2)ccc1N1CCOCC1"
  pIC50: 6.24
- MOLECULE: "COC(=O)c1ccccc1NC(=O)c1ccc2c(c1)C(=O)N(Cc1ccco1)C2=O"
  pIC50: 5.13
- MOLECULE: "Cc1cccc(OCC(=O)Nc2cccc(-c3nnc(-c4ccccc4)o3)c2)c1C"
  pIC50: 5.41
- MOLECULE: "CCCCC[C@H](O)C=C[C@H]1C=CC(=O)[C@@H]1C/C=C\\CCCC(=O)O"
  pIC50: 5.97
- MOLECULE: "CN(C)c1cccc(C(=O)Nc2cccc(F)c2)c1"
  pIC50: 4.91
- MOLECULE: "CCOc1cc(C2C(C#N)C(=N)SC(=N)C2C#N)ccc1OCCN1CCOCC1 (stereo unspecified)"
  pIC50: 4.50
- MOLECULE: "COc1cccc(-c2nnc(NC(=O)c3ccc(S(=O)(=O)N(CC(C)C)CC(C)C)cc3)o2)c1"
  pIC50: 5.32
- MOLECULE: "Cc1cc(C)n2c(S)nnc2n1"
  pIC50: 5.09
- MOLECULE: "COc1ccc(N2CCN(Cc3cc(=O)oc4cc5c(cc34)CCCC5)CC2)cc1"
  pIC50: 5.36
- MOLECULE: "O=C(NC1CCS(=O)(=O)C1)c1c(NC(=O)C2COc3ccccc3O2)sc2c1CCCC2 (stereo unspecified)"
  pIC50: 4.33
- MOLECULE: "Nc1sc2c(c1C(=O)NC1CCS(=O)(=O)C1)CCC2 (stereo unspecified)"
  pIC50: 4.57
- MOLECULE: "CCOc1ccccc1N1CSC2=C(C#N)C(c3c(OC)ccc4ccccc34)CC(=O)N2C1 (stereo unspecified)"
  pIC50: 5.66
- MOLECULE: "Cc1cccc(C(=O)OCC(=O)Nc2ccc(N3CCCCC3)cc2)c1O"
  pIC50: 4.88
- MOLECULE: "Cc1cccc(N2CSC3=C(C#N)C(c4ccc(C)o4)CC(=O)N3C2)c1 (stereo unspecified)"
  pIC50: 6.36
- MOLECULE: "Cc1cc(NC(=O)CSc2nc3cc4c(cc3c(=O)n2CCc2ccccc2)OCO4)no1"
  pIC50: 5.32
- MOLECULE: "Cc1ccc(-n2c(N)c(C(N)=O)sc2=S)cc1"
  pIC50: 5.59
